# Run Description: In vivo pharmacokinetic study in rats, plasma (IV and PO)
# Design: species or system Sprague-Dawley rats
# Details: male, Sprague-Dawley, 5 mg/kg; rat, IV, plasma; read-out: t1/2, IV Plasma (converted)
Measure: half-life (h)
// note: answer is a bare numeric in h

Query: Respond only with half-life recorded for C=C[C@]12OC(=O)N(CCCCn3cnc(-c4ccc(OC)nc4)c3)[C@@H]1[C@@H](C)C(=O)[C@H](C)C[C@](C)(OC)[C@H](OC1O[C@H](C)C[C@H](N(C)C)[C@H]1O)[C@@H](C)C(=O)[C@@H](C)C(=O)O[C@@H]2CC (some centres unmarked)
Response: 1.7

Query: Respond only with half-life recorded for C=C[C@]12OC(=O)N(CCCCn3cnc(-c4cnccc4Cl)c3)[C@@H]1[C@@H](C)C(=O)[C@H](C)C[C@](C)(OC)[C@H](OC1O[C@H](C)C[C@H](N(C)C)[C@H]1O)[C@@H](C)C(=O)[C@@H](C)C(=O)O[C@@H]2CC (some centres unmarked)
Response: 1

Query: Respond only with half-life recorded for CC[C@H]1OC(=O)[C@@](C)(F)C(=O)[C@H](C)[C@@H](OC2O[C@H](C)C[C@H](N(C)C)[C@H]2O)[C@@](C)(OC)C[C@@H](C)C(=O)[C@H](C)[C@H]2N(CCCCn3cnc(-c4ccc(C)nc4)c3)C(=O)O[C@]12CC (some centres unmarked)
Response: 2.3

Query: Respond only with half-life recorded for C=C[C@]12OC(=O)N(CCCCn3cnc(-c4ccc(C)nc4)c3)[C@@H]1[C@@H](C)C(=O)[C@H](C)C[C@](C)(OC)[C@H](OC1O[C@H](C)C[C@H](N(C)C)[C@H]1O)[C@@H](C)C(=O)[C@@H](C)C(=O)O[C@@H]2CC (some centres unmarked)
Response: 1.6

Kindly review the next molecule as well.
Query: Respond only with half-life recorded for C=C[C@]12OC(=O)N(CCCCn3cnc(-c4ccc(Cl)nc4)c3)[C@@H]1[C@@H](C)C(=O)[C@H](C)C[C@](C)(OC)[C@H](OC1O[C@H](C)C[C@H](N(C)C)[C@H]1O)[C@@H](C)C(=O)[C@@H](C)C(=O)O[C@@H]2CC (some centres unmarked)
Response: 1.3

###

# Run Description: In vivo pharmacokinetic study in rats, plasma (IV and PO)
# Set-up: species or system Sprague-Dawley rats
# Details: male, Sprague-Dawley, rat, plasma, intravenous
Please note: clearance exactly at 100 mL/min/kg is Not met. Only values below 100 mL/min/kg get Met.

Query: Answer whether the compound C=C[C@]12OC(=O)N(CCCCn3cnc(-c4ccc(Cl)nc4)c3)[C@@H]1[C@@H](C)C(=O)[C@H](C)C[C@](C)(OC)[C@H](OC1O[C@H](C)C[C@H](N(C)C)[C@H]1O)[C@@H](C)C(=O)[C@@H](C)C(=O)O[C@@H]2CC (some centres unmarked) [XX] has clearance strictly less than 100 mL/min/kg
Response: Not met

Query: Answer whether the compound C=C[C@]12OC(=O)N(CCCCn3cnc(-c4ccc(C)nc4)c3)[C@@H]1[C@@H](C)C(=O)[C@H](C)C[C@](C)(OC)[C@H](OC1O[C@H](C)C[C@H](N(C)C)[C@H]1O)[C@@H](C)C(=O)[C@@H](C)C(=O)O[C@@H]2CC (some centres unmarked) [XVI] has clearance strictly less than 100 mL/min/kg
Response: Not met

Query: Answer whether the compound C=C[C@]12OC(=O)N(CCCCn3cnc(-c4cnccc4Cl)c3)[C@@H]1[C@@H](C)C(=O)[C@H](C)C[C@](C)(OC)[C@H](OC1O[C@H](C)C[C@H](N(C)C)[C@H]1O)[C@@H](C)C(=O)[C@@H](C)C(=O)O[C@@H]2CC (some centres unmarked) [XXX] has clearance strictly less than 100 mL/min/kg
Response: Not met

Query: Answer whether the compound CC[C@H]1OC(=O)[C@@](C)(F)C(=O)[C@H](C)[C@@H](OC2O[C@H](C)C[C@H](N(C)C)[C@H]2O)[C@@](C)(OC)C[C@@H](C)C(=O)[C@H](C)[C@H]2N(CCCCn3cnc(-c4ccc(C)nc4)c3)C(=O)O[C@]12CC (some centres unmarked) [XIV] has clearance strictly less than 100 mL/min/kg
Response: Met

Now for a further compound.
Query: Answer whether the compound C=C[C@]12OC(=O)N(CCCCn3cnc(-c4ccc(OC)nc4)c3)[C@@H]1[C@@H](C)C(=O)[C@H](C)C[C@](C)(OC)[C@H](OC1O[C@H](C)C[C@H](N(C)C)[C@H]1O)[C@@H](C)C(=O)[C@@H](C)C(=O)O[C@@H]2CC (some centres unmarked) [XVIII] has clearance strictly less than 100 mL/min/kg
Response: Met
